# study system: T1, GABAA receptor-associated protein (GABARAP) (mouse, UniProt Q9DCD6 1-117)
# T1 construct: GABARAP, mouse, UniProt Q9DCD6; also called GABARAP WT; source: E. coli BL21 (DE3), purified (nickel-NTA, size exclusion)
# T1 sequence (Q9DCD6 whole entry): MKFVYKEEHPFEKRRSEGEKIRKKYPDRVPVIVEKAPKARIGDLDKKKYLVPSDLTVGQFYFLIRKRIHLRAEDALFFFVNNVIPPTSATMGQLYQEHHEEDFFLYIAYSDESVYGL
# assay remarks: ITC; VP-ITC at 25 °C; 50 mM Tris pH 7.8, 100 mM NaCl, 1 mM EDTA, 1 mM DTT; γ2 subunit protein or peptide (100-200 μM) injected into GABARAP, GABARAPL1 or AP2 (10-20 μM) in the cell; one-site binding model
# assay setup: both partners purified
Below, each entry is listed with its recorded stoichiometry N.
Answer with a bare number; do not write a unit.

Example results:
binder	stoichiometry N
GABAA receptor γ2 subunit 375-442 (full length TM3-TM4 ICD) (domain or fragment, mouse, UniProt P22723-2 375-442, looked up, GABAA receptor γ2 subunit, mouse, UniProt P22723-2, residues 375-442 (TM3-TM4 intracellular domain); also called GABAA receptor γ2 375-442; source: E. coli BL21 (DE3), purified (nickel-NTA, size exclusion)) PAPTIDIRPRSATIQMNNATHLQERDEEYGYECLDGKDCASFFCCFEDCRTGAWRHGRIHIRIAKMDS	0.53
ERDEEYGYECLDGKDCASFFCCFEDCR (domain or fragment, mouse, source: E. coli BL21 (DE3), purified (nickel-NTA, size exclusion)) [GABAA receptor γ2 subunit 398-424]	0.92
GYECLDGKDCASFFCCFEDCRTGAWRHGRIHIRIAKMDS (domain or fragment, mouse, GABAA receptor γ2 subunit, mouse, UniProt P22723-2, residues 404-442; also called GABAA receptor γ2 404-442; source: E. coli BL21 (DE3), purified (nickel-NTA, size exclusion)) [GABAA receptor γ2 subunit 404-442]	0.55

Qu. Using known records, supply stoichiometry N for PAPTIDIRPRSATIQMNNATHLQERDEEYGYECLDGKDCASFFCCFEDCR (domain or fragment, mouse, UniProt P22723-2 375-424, looked up, source: E. coli BL21 (DE3), purified (nickel-NTA, size exclusion)) [GABAA receptor γ2 subunit 375-424]
Ans. 0.92

Data origin: paper PMC7803741
